Recorded Fall values for a group of compounds are listed next.
test system: Rattus norvegicus; test: The percent fall in systolic blood pressure at 1.5 / 4 hr after peroral administration of 50 mg/kg in DOCA/saline hypertensive rats at 24 hr; format: functional, Artery; details: route oral

# count of solved cases: 4
chemical_smiles=O=C(NC(=O)c1cccs1)NC1CCN(CCc2c[nH]c3ccccc23)CC1 subject_of_test="Rattus norvegicus" observed_value=38%
chemical_smiles=O=C(NC1CCN(CCc2c[nH]c3ccccc23)CC1)c1ccccc1 subject_of_test="Rattus norvegicus" observed_value=38%
chemical_smiles=O=C(NC(=O)c1ccccc1)NC1CCN(CCc2c[nH]c3ccccc23)CC1 subject_of_test="Rattus norvegicus" observed_value=38%
chemical_smiles=O=C(NC(=O)c1cccs1)NC1CCN(CCCC(=O)c2ccc(F)cc2)CC1 subject_of_test="Rattus norvegicus" observed_value=21%

[in] For the compound "CN(C(=O)Nc1ccccc1)C1CCN(CCc2c[nH]c3ccccc23)CC1" , report Fall.
[out] 26%
